ASSAY TARGET: G-protein coupled receptor 183 (Homo sapiens) (UniProt P32249)
Sequence (P32249 whole entry, looked up, the tested form may be a part): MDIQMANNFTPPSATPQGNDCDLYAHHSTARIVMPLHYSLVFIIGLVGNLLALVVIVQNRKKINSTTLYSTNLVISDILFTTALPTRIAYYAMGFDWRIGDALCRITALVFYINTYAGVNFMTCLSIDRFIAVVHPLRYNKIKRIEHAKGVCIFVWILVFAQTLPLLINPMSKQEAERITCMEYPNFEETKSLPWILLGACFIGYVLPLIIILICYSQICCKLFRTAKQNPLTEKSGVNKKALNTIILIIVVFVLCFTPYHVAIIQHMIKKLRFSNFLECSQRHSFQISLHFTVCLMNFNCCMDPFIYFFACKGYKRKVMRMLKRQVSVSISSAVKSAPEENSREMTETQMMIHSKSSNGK
PROTOCOL: EBI2 receptor antagonists, beta-arrestin recruitment, primary screen, cell-based, luminescence, 7a,25-OHC stimulation, uHTS (AID 651636);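 also: enzyme fragment complementation signal reports receptor beta-arrestin coupling in cells; 0% = agonist plus DMSO wells and 100% = wells without agonist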
RECORDED CONDITIONS: 7a,25-OHC stimulated, at 5 µM, active compounds read high
Out of some 360,000 compounds screened, about 3,000 (0.83%) were called active. This excerpt belongs to a sample that is enriched for actives.
So I've got a bunch of compounds here, and I need their inhibition values.
Give bare numbers, in %.

1. O=C(c1ccccc1Oc1ccccc1)N1CCN(c2ccc(F)cc2)CC1 :: 7.76

Hi team, please reply with inhibition for each item in this list.
1. CN1C[C@@H](CO)O[C@@H](n2cnc3c(N4CCN(CCO)CC4)ncnc32)C1
2. CC(=O)NCCc1ccc(S(=O)(=O)N(C)C2CCS(=O)(=O)C2)cc1 (stereo unspecified)
3. CCOC(=O)C1CCCN(C(=O)Cn2ncc3c(=O)oc4ccc(C)cc4c32)C1 (stereo unspecified)
4. C/C(=N\NC(=O)C1(C)CC1(Br)Br)c1ccc(C)cc1C (stereo unspecified)
5. CCCc1cc(=O)[nH]c(SCc2ccc(C#N)cc2)n1
6. O=[N+]([O-])c1c(NCCO)cc(Sc2nc3ccccc3s2)c2nonc12
7. Cc1ccc2oc(=O)c3cnn(CC(=O)N4CCN(c5ccccn5)CC4)c3c2c1
8. CCOc1ccc(CCNC(=O)C(CC)n2nc(C)n3c(cc4sccc43)c2=O)cc1OCC (stereo unspecified)

5.76
-2.21
-3.84
4.16
-20.6
51.4
14.3
0.672
